assay: in vitro; conditions: rat, gh3-tre-luc cells, AC50 (uM) modified / 1000, Tox21_110001=Tox21_111602; viability, 1 nM T3 present, 24 h

| compound | CC50 at 24 h |
| --- | --- |
| CC1CCC(C(C)C)C(OC(=O)c2ccccc2N)C1 (stereo not shown) [Menthyl anthranilate] | 42.1 µM |

====

Reported CC50 at 24 h by item:
assay: in vitro; details: rat, gh3-tre-luc cells, AC50 (uM) modified / 1000
Structures can show the parent of a compound that is named as a salt.
reportedProperty: CC50 at 24 h

| molecule | observed |
| --- | --- |
| C=C(C)C(N)=O [Methacrylamide] | > 90 µM |
| CCCCc1ccc(N)cc1 [4-Butylaniline] | > 90 µM |
| CCCCCCCCCCOc1cc2c(O)c(C(=O)OCC)cnc2cc1OCC [Decoquinate] | > 50 µM |
| CCCCCC1CCCC(=O)O1 (stereo not shown) [6-Pentyltetrahydro-2H-pyran-2-one] | > 90 µM |
| Brc1ccc(-c2ccccc2)cc1 [4-Bromobiphenyl] | > 90 µM |
| CC1(S(=O)(=O)O)CC(=O)c2ccccc2C1=O (stereo not shown) [Menadione sodium bisulfite] | 12.2 µM |
| COc1ccc2c3c1O[C@H]1[C@@H](O)C=C[C@H]4[C@@H](C2)N(C)CC[C@@]341 [Codeine hydrochloride] | > 90 µM |
| Nc1ccccc1Nc1ccccc1 [2-Aminodiphenylamine] | 14.7 µM |
| Nc1nccs1 [2-Aminothiazole] | > 90 µM |
| CCCCCCCCCCC1CO1 (stereo not shown) [1,2-Epoxydodecane] | > 90 µM |
